// provenance: ChEMBL document CHEMBL4406827

# Tested on: MCF7
# Experimental protocol: Cytotoxicity against human MCF7 cells assessed as reduction in cell viability incubated for 48 hrs by MTT assay
# Format: functional, cell-based
# Experimental parameters: MCF7, 48 h
I'd appreciate it if you could supply pIC50 values for the items below.
Answers are plain numbers, as −log10 of the molar value.

// solved cases for pIC50 follow
| Query smiles | Target or test system | pIC50 |
| --- | --- | --- |
| COc1cc(NS(C)(=O)=O)ccc1Nc1c2ccccc2nc2ccccc12 | MCF7 | 6.04 |
| S=C(N/N=C\c1ccnc2ccccc12)Nc1ccc(Cl)cc1 | MCF7 | 5.97 |
| Cc1ccc(NC(=S)N/N=C\c2ccnc3ccccc23)cc1 | MCF7 | 6.01 |
| O=[N+]([O-])c1ccc(NC(=S)N/N=C\c2ccnc3ccccc23)cc1 | MCF7 | 6.09 |

Batch request: pIC50 per item, same order as input.
1. S=C(N/N=C\c1ccnc2ccccc12)Nc1cccc2ccccc12
2. COc1ccc(NC(=S)N/N=C\c2ccnc3ccccc23)cc1

Response line:
6.06
6.00

* * *

# Experimental protocol: Cytotoxicity against mouse RAW264.7 cells assessed as reduction in cell viability incubated for 48 hrs by MTT assay
# Assay type: cell-based
I'd appreciate it if you could supply CC50 at 48 h values for the items below.
One number for each entry, in µM.

// solved cases for CC50 at 48 h follow
| Compound | CC50 at 48 h, µM |
| --- | --- |
| COc1cc(NS(C)(=O)=O)ccc1Nc1c2ccccc2nc2ccccc12 [AMSACRINE] | 95.5 |
| Cc1ccc(NC(=S)N/N=C\c2ccnc3ccccc23)cc1 | 50.5 |
| S=C(N/N=C\c1ccnc2ccccc12)Nc1cccc2ccccc12 | 22.6 |

Batch request: CC50 at 48 h per item, same order as input.
1. S=C(NCCc1ccccc1)N/N=C\c1ccnc2ccccc12
2. S=C(N/N=C\c1ccnc2ccccc12)Nc1ccc(Br)cc1
3. CNC(=O)c1cccc2c(Nc3ccc(NS(C)(=O)=O)cc3OC)c3cccc(C)c3nc12 [ASULACRINE]

Response line:
1: 33; 2: 53.5; 3: 31.2

Batch request: CC50 at 48 h per item, same order as input.
1. O=[N+]([O-])c1ccc(NC(=S)N/N=C\c2ccnc3ccccc23)cc1
2. COc1ccc(NC(=S)N/N=C\c2ccnc3ccccc23)cc1
3. Fc1ccc(NC(=S)N/N=C\c2ccnc3ccccc23)cc1

Response line:
[82.5, 101, 45.9]

Batch request: CC50 at 48 h per item, same order as input.
1. CCc1ccc(NC(=S)N/N=C\c2ccnc3ccccc23)cc1
2. S=C(N/N=C\c1ccnc2ccccc12)Nc1cccnc1

Response line:
1: 35.7; 2: 91.6

* * *

# Target or test system: Albumin (Bos taurus)
# Sequence (P02769 whole entry): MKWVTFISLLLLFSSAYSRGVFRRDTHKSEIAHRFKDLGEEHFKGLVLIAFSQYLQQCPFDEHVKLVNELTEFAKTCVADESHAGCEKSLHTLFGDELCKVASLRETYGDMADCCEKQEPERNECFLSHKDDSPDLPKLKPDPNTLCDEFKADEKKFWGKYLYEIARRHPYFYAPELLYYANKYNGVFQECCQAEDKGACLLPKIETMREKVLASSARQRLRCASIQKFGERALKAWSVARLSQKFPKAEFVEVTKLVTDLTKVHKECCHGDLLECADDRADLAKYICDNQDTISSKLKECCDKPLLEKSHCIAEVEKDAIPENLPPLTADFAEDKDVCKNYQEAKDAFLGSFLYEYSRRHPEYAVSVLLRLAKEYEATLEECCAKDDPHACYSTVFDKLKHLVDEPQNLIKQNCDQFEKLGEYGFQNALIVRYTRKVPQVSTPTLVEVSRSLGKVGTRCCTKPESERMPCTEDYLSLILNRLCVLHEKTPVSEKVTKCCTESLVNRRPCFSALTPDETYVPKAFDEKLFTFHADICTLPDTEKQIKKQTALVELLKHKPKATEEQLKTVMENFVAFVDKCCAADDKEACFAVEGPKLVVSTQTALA
# Experimental protocol: Binding affinity to bovine serum albumin assessed as hypsochromic shift at 5 to 40 uM by fluorescence emission spectrum analysis method
# Assay type: ADME
# Experimental parameters: cattle, isolated protein
Measured property: Activity

// solved cases for Activity follow
| Query smiles | Measured property | Assay result |
| --- | --- | --- |
| CCc1ccc(NC(=S)N/N=C\c2ccnc3ccccc23)cc1 | Activity | Active |
| C=CCNC(=S)N/N=C\c1ccnc2ccccc12 | Activity | Active |
| COc1ccc(NC(=S)N/N=C\c2ccnc3ccccc23)cc1 | Activity | Active |
| O=[N+]([O-])c1ccc(NC(=S)N/N=C\c2ccnc3ccccc23)cc1 | Activity | Active |
| S=C(N/N=C\c1ccnc2ccccc12)Nc1ccc(Cl)cc1 | Activity | Active |

Prompt line: # input molecule: S=C(NCCc1ccccc1)N/N=C\c1ccnc2ccccc12 ; wanted: its Activity
Response line: Active
